Values compiled from ChEMBL document CHEMBL1154520.

- Test system: MCF7
- protocol_text: Cytotoxicity against human MCF7 cells by MTT assay
- Type: functional, cell-based
pIC50: −log10 of the molar value.
observation_type: pIC50

>  <compound>
CC[C@@]1(OC(=O)Cn2ccnc2)C(=O)OCc2c1cc1n(c2=O)Cc2cc3ccccc3nc2-1

>  <reported_measurement>
6.05

$$$$
>  <compound>
CC[C@@]1(OC(=O)C[n+]2cccc(C)c2)C(=O)OCc2c1cc1n(c2=O)Cc2cc3ccccc3nc2-1

>  <reported_measurement>
5.42

$$$$
>  <compound>
CC[C@@]1(O)C(=O)OCc2c1cc1n(c2=O)Cc2cc3c(CN(C)C)c(O)ccc3nc2-1 [TOPOTECAN]

>  <reported_measurement>
5.26

$$$$
>  <compound>
CC[C@@]1(OC(=O)C(C)n2ccnn2)C(=O)OCc2c1cc1n(c2=O)Cc2cc3ccccc3nc2-1 (stereo partly drawn)

>  <reported_measurement>
6.80

$$$$
>  <compound>
CC[C@@]1(OC(=O)C(C)n2cncn2)C(=O)OCc2c1cc1n(c2=O)Cc2cc3ccccc3nc2-1 (stereo partly drawn)

>  <reported_measurement>
6.19

$$$$
>  <compound>
CC[C@@]1(OC(=O)COc2cc(C(F)(F)F)ncn2)C(=O)OCc2c1cc1n(c2=O)Cc2cc3ccccc3nc2-1

>  <reported_measurement>
5.75

$$$$
>  <compound>
CC[C@@]1(OC(=O)C[n+]2cccc(O)c2)C(=O)OCc2c1cc1n(c2=O)Cc2cc3ccccc3nc2-1

>  <reported_measurement>
5.42

$$$$
>  <compound>
CC[C@@]1(OC(=O)CO)C(=O)OCc2c1cc1n(c2=O)Cc2cc3ccccc3nc2-1

>  <reported_measurement>
4.98

$$$$
>  <compound>
CC[C@@]1(OC(=O)Cn2cccn2)C(=O)OCc2c1cc1n(c2=O)Cc2cc3ccccc3nc2-1

>  <reported_measurement>
6.92

$$$$
>  <compound>
CC[C@@]1(OC(=O)C(C)Oc2cc(C(F)(F)F)ncn2)C(=O)OCc2c1cc1n(c2=O)Cc2cc3ccccc3nc2-1 (stereo partly drawn)

>  <reported_measurement>
6.57

$$$$
>  <compound>
CC[C@@]1(OC(=O)C(C)n2cccn2)C(=O)OCc2c1cc1n(c2=O)Cc2cc3ccccc3nc2-1 (stereo partly drawn)

>  <reported_measurement>
6.09

$$$$
>  <compound>
CC[C@@]1(OC(=O)Cn2cncn2)C(=O)OCc2c1cc1n(c2=O)Cc2cc3ccccc3nc2-1

>  <reported_measurement>
6.16

$$$$
>  <compound>
CC[C@@]1(OC(=O)C(C)O)C(=O)OCc2c1cc1n(c2=O)Cc2cc3ccccc3nc2-1 (stereo partly drawn)

>  <reported_measurement>
6.25

$$$$
>  <compound>
CC[C@@]1(OC(=O)C[n+]2cccc(C(=O)O)c2)C(=O)OCc2c1cc1n(c2=O)Cc2cc3ccccc3nc2-1

>  <reported_measurement>
5.67

$$$$
>  <compound>
CC[C@@]1(OC(=O)C[n+]2cccc(C(C)=O)c2)C(=O)OCc2c1cc1n(c2=O)Cc2cc3ccccc3nc2-1

>  <reported_measurement>
5.46

$$$$
>  <compound>
CC[C@@]1(OC(=O)C(C)n2ccnc2)C(=O)OCc2c1cc1n(c2=O)Cc2cc3ccccc3nc2-1 (stereo partly drawn)

>  <reported_measurement>
6.96

$$$$
>  <compound>
CC[C@@]1(OC(=O)C[n+]2cccc(CO)c2)C(=O)OCc2c1cc1n(c2=O)Cc2cc3ccccc3nc2-1

>  <reported_measurement>
5.59

$$$$
>  <compound>
CC[C@@]1(OC(=O)Cn2ccnn2)C(=O)OCc2c1cc1n(c2=O)Cc2cc3ccccc3nc2-1

>  <reported_measurement>
5.92

$$$$
